targetOrSystem: hM2 (Homo sapiens)
Sequence (P08172 whole entry): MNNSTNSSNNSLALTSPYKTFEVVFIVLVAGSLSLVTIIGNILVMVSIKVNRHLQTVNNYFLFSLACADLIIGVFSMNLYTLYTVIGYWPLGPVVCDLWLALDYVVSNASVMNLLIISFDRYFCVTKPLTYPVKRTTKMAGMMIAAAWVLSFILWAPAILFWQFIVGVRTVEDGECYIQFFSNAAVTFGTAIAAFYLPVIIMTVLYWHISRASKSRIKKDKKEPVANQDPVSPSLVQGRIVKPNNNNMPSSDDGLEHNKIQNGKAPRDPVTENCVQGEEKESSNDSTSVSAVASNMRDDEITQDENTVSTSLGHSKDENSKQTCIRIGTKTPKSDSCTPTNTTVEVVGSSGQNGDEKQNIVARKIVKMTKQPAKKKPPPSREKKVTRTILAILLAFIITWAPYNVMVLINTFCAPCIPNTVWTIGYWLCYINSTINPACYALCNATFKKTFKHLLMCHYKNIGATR
testSummary: muscarinic selectivity hM2
attributeMeasured: EC50

So what's the measured EC50 for this one? Cc1nc2sc(C(=O)NC3CC3)c(N)c2c(C)c1Cl
~600 nM

====

targetOrSystem: human M4 receptor (Homo sapiens, UniProt P08173)
Sequence (P08173 whole entry): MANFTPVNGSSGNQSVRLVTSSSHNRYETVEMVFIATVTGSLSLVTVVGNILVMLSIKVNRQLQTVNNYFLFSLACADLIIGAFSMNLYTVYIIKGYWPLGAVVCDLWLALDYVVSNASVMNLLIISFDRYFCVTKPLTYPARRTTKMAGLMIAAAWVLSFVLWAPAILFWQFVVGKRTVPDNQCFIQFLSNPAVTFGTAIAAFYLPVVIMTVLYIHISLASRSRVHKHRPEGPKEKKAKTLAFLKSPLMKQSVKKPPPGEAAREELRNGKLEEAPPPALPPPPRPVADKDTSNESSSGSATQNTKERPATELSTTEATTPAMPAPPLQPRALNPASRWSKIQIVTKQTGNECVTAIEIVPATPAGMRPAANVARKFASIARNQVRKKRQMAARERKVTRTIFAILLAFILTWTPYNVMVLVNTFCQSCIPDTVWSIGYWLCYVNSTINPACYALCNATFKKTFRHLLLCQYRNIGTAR
testSummary: human M4 positive allosteric modulator potency assay
Assay type: cell-based
assayContext: human M4 PAM; mean of at least 3 experiments
attributeMeasured: pEC50 ± SEM
// return a plain number; no unit text

Cc1nc2sc(C(=O)NCc3ccccc3)c(N)c2c(C)c1Cl    6.97
Cc1nc2sc(C(=O)NCc3cccc(F)c3F)c(N)c2c(C)c1Cl    6.91
Cc1nc2sc(C(=O)NCc3ccncn3)c(N)c2c(C)c1Cl    6.57

So what's the measured pEC50 ± SEM for this one? Cc1nc2sc(C(=O)NCc3ccc4c(c3)OCO4)c(N)c2c(C)c1Cl
7.09
